Give measured pKd for each item. Keep answers brief.
MEASURED TARGET: TogB (Yersinia enterocolitica, UniProt A0ACH1C7V4, D363C)
Construct: TogB without signal secretion peptide, D363C conjugated to MDCC
PROCEDURE SUMMARY: stopped-flow fluorescence titration of MDCC-labelled purified protein
Scale for pKd: -log10 of concentration given in mol/L; no unit attached.

# input Recorded pKd of O=C(O)[C@H]1O[C@H](O[C@@H]2[C@H](O)[C@@H](O)C(O)O[C@@H]2C(=O)O)[C@H](O)[C@@H](O)[C@H]1O (some centres unmarked) [digalUA, digalacturonic acid] , please.
# output 5.22

# input Recorded pKd of O=C(O)C1=C[C@H](O)[C@@H](O)[C@@H](O[C@@H]2[C@H](O)[C@@H](O)C(O)O[C@@H]2C(=O)O)O1 (some centres unmarked) [unsatdigalUA, 4,5-unsaturated digalacturonic acid] , please.
# output 5.89
